biological target: Legumain (Homo sapiens); assay: Inhibition of legumain in human MCF7 cells using Z-Ala-Ala-Asn-MCA substrate at 30 uM incubated for 24 hrs by microplate reader analysis; format: cell-based
Listed here are compounds together with their documented inhibition.
A number alone suffices; assume %.

Some solved entries appear below for comparison.
INSERT INTO measurements (entry_smiles, measure_name, measurement_unit, observed) VALUES
  ('N#C[C@H](CC(N)=O)NC(=O)[C@@H]1CCCN1S(=O)(=O)c1ccc(-c2ccc(F)cc2)cc1', 'inhibition', '%', 40),
  ('N#C[C@H](CC(N)=O)NC(=O)[C@@H]1CCCN1S(=O)(=O)c1ccc(Br)cc1', 'inhibition', '%', 0),
  ('N#C[C@H](CC(N)=O)NC(=O)[C@@H]1CCCN1S(=O)(=O)c1ccc(-c2ccccc2Cl)cc1', 'inhibition', '%', 29),
  ('N#C[C@H](CC(N)=O)NC(=O)[C@@H]1CCCN1S(=O)(=O)c1ccc(-c2ccccc2)cc1', 'inhibition', '%', 47),
  ('CC(C)c1ccc(-c2ccc(S(=O)(=O)N3CCC[C@H]3C(=O)N[C@H](C#N)CC(N)=O)cc2)cc1', 'inhibition', '%', 75),
  ('N#C[C@H](CC(N)=O)NC(=O)[C@@H]1CCCN1S(=O)(=O)c1ccc(F)cc1', 'inhibition', '%', 0);

Task: Identify measured inhibition obtained with Legumain (Homo sapiens) for Cc1ccc(-c2ccc(S(=O)(=O)N3CCC[C@H]3C(=O)N[C@H](C#N)CC(N)=O)cc2)cc1 .
Output: 0

###

target: Legumain (Homo sapiens) (UniProt Q99538); test: Inhibition of legumain in human MCF7 cells using Z-Ala-Ala-Asn-MCA substrate at 30 uM incubated for 24 hrs by microplate reader analysis; type: cell-based
Sequence (Q99538 whole entry): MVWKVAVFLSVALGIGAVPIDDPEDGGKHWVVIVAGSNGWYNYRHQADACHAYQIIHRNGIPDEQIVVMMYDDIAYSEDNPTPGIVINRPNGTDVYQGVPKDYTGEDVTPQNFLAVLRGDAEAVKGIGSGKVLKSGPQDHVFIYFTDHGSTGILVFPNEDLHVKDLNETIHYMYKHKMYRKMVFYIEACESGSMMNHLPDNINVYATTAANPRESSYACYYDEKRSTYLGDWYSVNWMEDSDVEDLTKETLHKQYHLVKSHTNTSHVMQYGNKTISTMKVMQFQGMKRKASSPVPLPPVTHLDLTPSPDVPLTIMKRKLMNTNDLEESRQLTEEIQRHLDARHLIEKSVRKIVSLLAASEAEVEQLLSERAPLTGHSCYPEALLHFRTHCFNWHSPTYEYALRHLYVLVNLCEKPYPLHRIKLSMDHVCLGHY
measure.name: inhibition (%)
State just the number; it will be interpreted in %.

Recorded results for 2 molecules are shown here.
INSERT INTO assay_data (entry_smiles, test_target, observed) VALUES
  ('N#Cc1ccc(-c2ccc(S(=O)(=O)N3CCC[C@H]3C(=O)N[C@H](C#N)CC(N)=O)cc2)cc1', 'Legumain (Homo sapiens) (UniProt Q99538)', 0),
  ('CC(C)(C)c1ccc(-c2ccc(S(=O)(=O)N3CCC[C@H]3C(=O)N[C@H](C#N)CC(N)=O)cc2)cc1', 'Legumain (Homo sapiens) (UniProt Q99538)', 90);

Task: Note inhibition for the molecule shown: N#C[C@H](CC(N)=O)NC(=O)[C@@H]1CCCN1S(=O)(=O)c1ccc(C(F)(F)F)cc1
Output: 0

Task: Give inhibition for the following molecule: N#C[C@H](CC(N)=O)NC(=O)[C@@H]1CCCN1S(=O)(=O)c1ccc(-c2ccc(C(F)(F)F)cc2)cc1
Output: 52

###

target: Legumain (Homo sapiens) (UniProt Q99538); experiment: Inhibition of legumain in human MCF7 cells using Z-Ala-Ala-Asn-MCA substrate at 30 uM incubated for 24 hrs by microplate reader analysis; format: cell-based
inhibition reference
Write the value in % as a bare number.

INSERT INTO results (entry_smiles, observed) VALUES
  ('N#C[C@H](CC(N)=O)NC(=O)[C@@H]1CCCN1S(=O)(=O)c1ccc(-c2cccc(F)c2)cc1', 42),
  ('CCOc1ccc(-c2ccc(S(=O)(=O)N3CCC[C@H]3C(=O)N[C@H](C#N)CC(N)=O)cc2)cc1', 90),
  ('N#C[C@H](CC(N)=O)NC(=O)[C@@H]1CCCN1S(=O)(=O)c1ccc(-c2ccc3c(c2)OCO3)cc1', 49),
  ('N#C[C@H](CC(N)=O)NC(=O)[C@@H]1CCCN1S(=O)(=O)c1ccc(Cl)cc1Cl', 0),
  ('N#C[C@H](CC(N)=O)NC(=O)[C@@H]1CCCN1S(=O)(=O)c1ccc(Cl)cc1', 0);

Alright, here's another molecule for you.
Task: Retrieve inhibition on Legumain (Homo sapiens) (UniProt Q99538); query COc1ccc(-c2ccc(S(=O)(=O)N3CCC[C@H]3C(=O)N[C@H](C#N)CC(N)=O)cc2)cc1
Output: 90

Just for reference, ChEMBL document CHEMBL3739391 is where these values come from.
